Data provenance: ChEMBL document CHEMBL1137426

studyTarget: Glutathione S-transferase A1 (Homo sapiens, UniProt P08263)
Sequence (P08263 whole entry): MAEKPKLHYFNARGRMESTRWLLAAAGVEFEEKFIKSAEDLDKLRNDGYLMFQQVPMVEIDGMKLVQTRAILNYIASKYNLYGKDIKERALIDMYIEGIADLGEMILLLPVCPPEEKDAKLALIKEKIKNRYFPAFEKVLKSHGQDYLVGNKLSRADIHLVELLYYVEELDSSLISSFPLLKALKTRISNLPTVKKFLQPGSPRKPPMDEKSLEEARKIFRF
assayMetric: IC50 (µM)
Write the answer as a number in µM, unit excluded.

Exam item: Could you tell me which IC50 is on file for `C=C(CC)C(=O)c1ccc(OCC(=O)NCCCC(=O)NCc2cccc(C(N)=O)c2)c(Cl)c1Cl` ?
Marked response: 13.8
